Reference for the values: PubChem BioAssay (Tox21)

assayRemarks: qHTS assay to identify small molecule antagonists of the estrogen related receptor (ERR) signaling pathway from Tox21 library (AID 1224848); also: nearly all actives have a fitted effect of over 50% in size; also: potency is read from the fitted curve at half-maximal effect
details: ERR reporter cell line, luciferase antagonist mode, 18 h; series mostly up to 92.4 µM
Inconclusive results are not listed. The source made the active and inactive calls. Calls follow the shape of the dose curve; as a rule, active = well fitted inhibition curve with a large enough effect in the repeat runs; inconclusive = weak or mixed curves; inactive = no such curve, though single readings can be large or run the other way.
observationType: Potency

Examples from the recorded data:
c1ccc2cc3c(cc2c1)-c1cccc2cccc-3c12 ... inactive
CC(C)(C)C(O)/C(=C\c1ccc(Cl)cc1Cl)n1cncn1 (stereo unspecified) ... 33 µM (active)
CC(C)N1C(=O)N(c2ccccc2)CSC1=NC(C)(C)C ... 34.4 µM (active)
CC(C)(COCC1CO1)COCC1CO1 (stereo unspecified) ... inactive
CCS(=O)(=O)c1cccnc1S(=O)(=O)NC(=O)Nc1nc(OC)cc(OC)n1 ... inactive
ClC1=C(Cl)[C@]2(Cl)[C@@H]3[C@@H](Cl)[C@@H](Cl)C[C@@H]3[C@@]1(Cl)C2(Cl)Cl ... inactive
CC(=O)c1cc(C(C)(C)C)cc2c1CCC2(C)C ... inactive
ClC1=C(Cl)[C@]2(Cl)[C@@H]3[C@@H](Cl)[C@H](Cl)C[C@@H]3[C@@]1(Cl)C2(Cl)Cl ... inactive

// Potency lookup, key: CCSC(C)CC1CC(=O)C(/C(CC)=N/OC/C=C/Cl)=C(O)C1 (stereo unspecified) inactive

// Potency lookup, key: Oc1ccc(C(=C(Cl)Cl)c2ccc(O)cc2)cc1 34.3 µM (active)

// Potency lookup, key: N#Cc1ccccc1Cl inactive
